EXPERIMENT DESCRIPTION: qHTS Assay for Lipid Storage Modulators in Drosophila S3 Cells;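 note: cells counted by Cell Tracker Red CMTPX staining in the red channel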
REPORTED CONDITIONS: BODIPY lipid droplet fluorescence, 18-24 h, cells fed with added oleic acid; measured here: cell count max response
Hit rate of the full screen: of about 320,000 compounds, about 2,100 (0.66%) were called active. Inconclusive results (about 53%) are left out. The list comes from a sample in which actives are over-represented; it also holds close analogues and randomly drawn compounds.
READOUT TYPE: cell number change (%)
Quick note: give the figure in %, leave out the unit.

Query :: Quick check: cell number change of CC1CN(Cc2ccccc2)C(C)CC1O (stereo not drawn) ?
Result :: 13.3

Query :: Quick check: cell number change of CCn1c(CSc2nc(C)cs2)nc2cc(S(=O)(=O)N(C)C)ccc21 ?
Result :: -5.93

Query :: Quick check: cell number change of CC(C)c1nnc(SCC(=O)N2CCOCC2)n1C ?
Result :: 3.98
